Tested on: NALM-6
Test Description: Antiproliferative activity against human NALM6 leukemia cell line
Type: functional, cell-based
Parameter: pIC50. Scope: all listed entries.
Convention used: pIC50 is expressed as -log10 of the molar concentration.

So what pIC50 did C=C1C(=O)ON(C)C1C(C)C (centres undefined) get with NALM-6?
5.38

Could you share what pIC50 was measured for C=C1C(=O)ON(C)C1c1ccccc1 (centres undefined) , tested on NALM-6?
5.30

Form field - read-out: pIC50; system: NALM-6; submitted item: C=C1C(=O)ON(C)C1c1ccc([N+](=O)[O-])cc1 (centres undefined)
5.28

Checklist item: pIC50 tested on NALM-6, entry C=C1C(=O)ON(C)C1c1ccc(OC)cc1 (centres undefined) , value?
5.26

Any idea what pIC50 came out for C=C1C(=O)ON(C)C1c1ccc2c(c1)OCO2 (centres undefined) on NALM-6?
5.38

Others:
Item: C=C1C(=O)ON(C)C1c1cccc2ccccc12 (centres undefined) Test system: NALM-6 Read-out: pIC50 Value: ?
5.38

Record lookup: for NALM-6, what pIC50 belongs to C=C1C(=O)ON(C)C1c1ccc(Br)cc1 (centres undefined) ?
5.34

Query for NALM-6: what pIC50 does the record show for C=C1C(=O)ON(C)C1C(C)CCC (centres undefined) ?
6.47

Report pIC50 for C=C1C(=O)ON(C)C1c1ccc(C)cc1 (centres undefined) tested on NALM-6.
5.24
